- System: UT-SCC-81
- test-description: maximal % inhibition of viability relative to DMSO; higher = stronger effect
- measurement-parameters: culture condition: embedded in Myogel + collagen I; treatment time: 3 days
quantity-name: maximal % inhibition of viability (%)
Write down the numeric answer in % and omit the unit.

- compound: "CN(C)C/C=C/C(=O)Nc1cc2c(Nc3ccc(F)c(Cl)c3)ncnc2cc1O[C@H]1CCOC1 [Afatinib]"
  target-under-test: "UT-SCC-81"
  maximal % inhibition of viability [%]: 33.4

**Q:** Identify measured maximal % inhibition of viability corresponding to Cn1c(=O)c(F)c(Nc2ccc(I)cc2F)c2c(=O)n(C[C@@H](O)CO)cnc21 [TAK-733]
**A:** 25

**Q:** In one line, give reported maximal % inhibition of viability of the entry Cn1cnc2c(F)c(Nc3ccc(Br)cc3Cl)c(C(=O)NOCCO)cc21 [Selumetinib] .
**A:** 39.9

**Q:** Please look at this compound and report its maximal % inhibition of viability: CC(=O)Nc1cccc(-n2c(=O)n(C3CC3)c(=O)c3c(Nc4ccc(I)cc4F)n(C)c(=O)c(C)c32)c1 [Trametinib]
**A:** 24.5

**Q:** Name the recorded maximal % inhibition of viability of the compound listed here: COc1cc(F)c(F)c(Nc2ccc(I)cc2F)c1NS(=O)(=O)C1(C[C@H](O)CO)CC1 [Refametinib]
**A:** 50.7

**Q:** Report maximal % inhibition of viability, nothing else, for this compound: COc1ncc(-c2ccc3nccc(-c4ccnnc4)c3c2)cc1NS(=O)(=O)c1ccc(F)cc1F [Omipalisib]
**A:** 89.1

**Q:** Specify reported maximal % inhibition of viability for the compound shown: Cn1c(=O)n(-c2ccc(C(C)(C)C#N)cc2)c2c3cc(-c4cnc5ccccc5c4)ccc3ncc21 [Dactolisib]
**A:** 7.33

**Q:** Identify maximal % inhibition of viability associated with the compound C=CC(=O)Nc1cc2c(Nc3ccc(F)c(Cl)c3)ncnc2cc1OCCCN1CCOCC1 [Canertinib]
**A:** 99.8

**Q:** Provide only the value of recorded maximal % inhibition of viability for Cc1c(CN2CCN(C(=O)[C@H](C)O)CC2)sc2c(N3CCOCC3)nc(-c3cnc(N)nc3)nc12 [Apitolisib]
**A:** 81.1

**Q:** Quickly give me recorded maximal % inhibition of viability for `COc1ccc(-c2cc3c(C)nc(N)nc3n([C@H]3CC[C@H](OCCO)CC3)c2=O)cn1`
**A:** 77.7

**Q:** Specify maximal % inhibition of viability for Cn1cnc2c(F)c(Nc3ccc(Br)cc3F)c(C(=O)NOCCO)cc21 [Binimetinib] and stop.
**A:** 18.7

**Q:** Give the reported maximal % inhibition of viability for this compound. CO[C@H]1C[C@@H]2CC[C@@H](C)[C@@](O)(O2)C(=O)C(=O)N2CCCC[C@H]2C(=O)O[C@H]([C@H](C)C[C@@H]2CC[C@@H](OP(C)(C)=O)[C@H](OC)C2)CC(=O)[C@H](C)/C=C(\C)[C@@H](O)[C@@H](OC)C(=O)[C@H](C)C[C@H](C)/C=C/C=C/C=C/1C [Ridaforolimus]
**A:** 64

**Q:** State, in one line, measured maximal % inhibition of viability of CO[C@H]1C[C@@H]2CC[C@@H](C)[C@@](O)(O2)C(=O)C(=O)N2CCCC[C@H]2C(=O)O[C@H]([C@H](C)C[C@@H]2CC[C@@H](OC(=O)C(C)(CO)CO)[C@H](OC)C2)CC(=O)[C@H](C)/C=C(\C)[C@@H](O)[C@@H](OC)C(=O)[C@H](C)C[C@H](C)/C=C/C=C/C=C/1C [Temsirolimus]
**A:** 56.5

**Q:** Note maximal % inhibition of viability for the compound shown: CO[C@H]1C[C@@H]2CC[C@@H](C)[C@@](O)(O2)C(=O)C(=O)N2CCCC[C@H]2C(=O)O[C@H]([C@H](C)C[C@@H]2CC[C@@H](OCCO)[C@H](OC)C2)CC(=O)[C@H](C)/C=C(\C)[C@@H](O)[C@@H](OC)C(=O)[C@H](C)C[C@H](C)/C=C/C=C/C=C/1C [Everolimus]
**A:** 54.1

* * *

- Test system: UT-SCC-40
- test-description: relative IC50 (midpoint of the fitted curve; maximal inhibition may be below 50%); higher = less potent
- measurement-parameters: culture condition: on top of Matrigel; treatment time: 3 days
As shown below, each of these compounds has a reported relative IC50 value.

Here are 3 compounds together with their reported answers.
- chem-smiles: "Cn1cnc2c(F)c(Nc3ccc(Br)cc3F)c(C(=O)NOCCO)cc21"
  target-under-test: "UT-SCC-40"
  quantity-name: "relative IC50"
  reported-result: "39.4 nM"
- chem-smiles: "C=CC(=O)Nc1cc2c(Nc3ccc(F)c(Cl)c3)ncnc2cc1OCCCN1CCOCC1"
  target-under-test: "UT-SCC-40"
  quantity-name: "relative IC50"
  reported-result: "65.8 nM"
- chem-smiles: "CC(=O)Nc1cccc(-n2c(=O)n(C3CC3)c(=O)c3c(Nc4ccc(I)cc4F)n(C)c(=O)c(C)c32)c1"
  target-under-test: "UT-SCC-40"
  quantity-name: "relative IC50"
  reported-result: "3.55 nM"

As a next step, examine the compound that follows.
**Q:** Give relative IC50 for this entry on UT-SCC-40: `CN(C)C/C=C/C(=O)Nc1cc2c(Nc3ccc(F)c(Cl)c3)ncnc2cc1O[C@H]1CCOC1`
**A:** 24.2 nM

* * *

- System: UT-SCC-8
- test-description: drug sensitivity score (DSS); higher = more sensitive; extreme values may be limits of the assay
- measurement-parameters: culture condition: plastic 2D (no matrix); treatment time: 3 days
Below, each of the molecules is paired with its reported drug sensitivity score value.
Give the number; DSS is assumed, so skip it.

Past entries and their recorded results:
- chem-smiles: "Cn1c(=O)n(-c2ccc(C(C)(C)C#N)cc2)c2c3cc(-c4cnc5ccccc5c4)ccc3ncc21"
  quantity-name: "drug sensitivity score"
  unit-label: "DSS"
  reported-result: 0
- chem-smiles: "O=C(NC[C@H](O)CO)c1ccncc1Nc1ccc(I)cc1F"
  quantity-name: "drug sensitivity score"
  unit-label: "DSS"
  reported-result: 16.9
- chem-smiles: "CO[C@H]1C[C@@H]2CC[C@@H](C)[C@@](O)(O2)C(=O)C(=O)N2CCCC[C@H]2C(=O)O[C@H]([C@H](C)C[C@@H]2CC[C@@H](OC(=O)C(C)(CO)CO)[C@H](OC)C2)CC(=O)[C@H](C)/C=C(\\C)[C@@H](O)[C@@H](OC)C(=O)[C@H](C)C[C@H](C)/C=C/C=C/C=C/1C"
  quantity-name: "drug sensitivity score"
  unit-label: "DSS"
  reported-result: 10.4
- chem-smiles: "CO[C@H]1C[C@@H]2CC[C@@H](C)[C@@](O)(O2)C(=O)C(=O)N2CCCC[C@H]2C(=O)O[C@H]([C@H](C)C[C@@H]2CC[C@@H](OP(C)(C)=O)[C@H](OC)C2)CC(=O)[C@H](C)/C=C(\\C)[C@@H](O)[C@@H](OC)C(=O)[C@H](C)C[C@H](C)/C=C/C=C/C=C/1C"
  quantity-name: "drug sensitivity score"
  unit-label: "DSS"
  reported-result: 10.2

**Q:** Using the record for `CC(=O)Nc1cccc(-n2c(=O)n(C3CC3)c(=O)c3c(Nc4ccc(I)cc4F)n(C)c(=O)c(C)c32)c1` , state its measured drug sensitivity score.
**A:** 4.93

* * *

Reported maximal % inhibition of viability values for the following compounds.
- Test system: UT-SCC-42B
- test-description: maximal % inhibition of viability relative to DMSO; higher = stronger effect
- measurement-parameters: culture condition: plastic 2D (no matrix); treatment time: 3 days
Enter your answer as a number in %; do not include the unit.

// solved cases for maximal % inhibition of viability follow
- chem-smiles: "CO[C@H]1C[C@@H]2CC[C@@H](C)[C@@](O)(O2)C(=O)C(=O)N2CCCC[C@H]2C(=O)O[C@H]([C@H](C)C[C@@H]2CC[C@@H](OC(=O)C(C)(CO)CO)[C@H](OC)C2)CC(=O)[C@H](C)/C=C(\\C)[C@@H](O)[C@@H](OC)C(=O)[C@H](C)C[C@H](C)/C=C/C=C/C=C/1C"
  maximal % inhibition of viability / %: 15.3
- chem-smiles: "CO[C@H]1C[C@@H]2CC[C@@H](C)[C@@](O)(O2)C(=O)C(=O)N2CCCC[C@H]2C(=O)O[C@H]([C@H](C)C[C@@H]2CC[C@@H](O)[C@H](OC)C2)CC(=O)[C@H](C)/C=C(\\C)[C@@H](O)[C@@H](OC)C(=O)[C@H](C)C[C@H](C)/C=C/C=C/C=C/1C"
  maximal % inhibition of viability / %: 74.1
- chem-smiles: "Cn1c(=O)c(F)c(Nc2ccc(I)cc2F)c2c(=O)n(C[C@@H](O)CO)cnc21"
  maximal % inhibition of viability / %: 38.4
- chem-smiles: "CN(C)C/C=C/C(=O)Nc1cc2c(Nc3ccc(F)c(Cl)c3)ncnc2cc1O[C@H]1CCOC1"
  maximal % inhibition of viability / %: 37.8

**Q:** Under UT-SCC-42B: report maximal % inhibition of viability of `C=CC(=O)Nc1cc2c(Nc3ccc(F)c(Cl)c3)ncnc2cc1OCCCN1CCOCC1` .
**A:** 99.2

**Q:** Retrieve maximal % inhibition of viability on UT-SCC-42B; query `Cn1cnc2c(F)c(Nc3ccc(Br)cc3Cl)c(C(=O)NOCCO)cc21`
**A:** 25.6

**Q:** Write down measured maximal % inhibition of viability (UT-SCC-42B) for this compound. `O=C(NC[C@H](O)CO)c1ccncc1Nc1ccc(I)cc1F`
**A:** 49.2

Ref: the supplement of paper PMC7017272
